These measurements were taken from ChEMBL document CHEMBL1781932.

Provide the recorded MIC for the entries that follow.
Test system: Staphylococcus aureus
method.summary: Antimicrobial activity against tetracycline-susceptible Staphylococcus aureus Smith isolate 100 by CLSI dilution method
Assay type: functional
Give your result as the value with the unit written after it.

// recorded MIC for "COc1c2c(c(O)c3cc(CN4CCC4)ccc13)C(=O)C1=C(O)[C@]3(O)C(=O)C(C(N)=O)=C(O)[C@@H](N(C)C)[C@@H]3C[C@@H]1C2" : 0.0625 µg/mL

// recorded MIC for "CN(C)c1cc(NC(=O)CNC(C)(C)C)c(O)c2c1C[C@H]1C[C@H]3[C@H](N(C)C)C(O)=C(C(N)=O)C(=O)[C@@]3(O)C(O)=C1C2=O" : 0.0625 µg/mL

// recorded MIC for "COCCNCc1ccc2cc3c(c(O)c2c1)C(=O)C1=C(O)[C@]2(O)C(=O)C(C(N)=O)=C(O)[C@@H](N(C)C)[C@@H]2C[C@@H]1C3" : 1 µg/mL

// recorded MIC for "CN(C)[C@@H]1C(O)=C(C(N)=O)C(=O)[C@@]2(O)C(O)=C3C(=O)c4c(c(F)c5ccc(CN6CC(F)C6)cc5c4O)C[C@H]3C[C@@H]12" : 1 µg/mL

// recorded MIC for "CC(C)CNCc1ccc2cc3c(c(O)c2c1)C(=O)C1=C(O)[C@]2(O)C(=O)C(C(N)=O)=C(O)[C@@H](N(C)C)[C@@H]2C[C@@H]1C3" : 1 µg/mL

// recorded MIC for "COc1c2c(c(O)c3cc(CN4CC(F)C4)ccc13)C(=O)C1=C(O)[C@]3(O)C(=O)C(C(N)=O)=C(O)[C@@H](N(C)C)[C@@H]3C[C@@H]1C2" : 1 µg/mL

---

Provide the recorded MIC for the entries that follow.
Tested on: Enterobacter cloacae
method.summary: Antimicrobial activity against tetracycline-susceptible Enterobacter cloacae isolate 108 by CLSI dilution method
Format: functional
Kindly provide the numeric value in µg/mL only, without the unit symbol.

Entry "CN(C)[C@@H]1C(O)=C(C(N)=O)C(=O)[C@@]2(O)C(O)=C3C(=O)c4c(c(F)c5ccc(CN6CCCC6)cc5c4O)C[C@H]3C[C@@H]12" , tested on Enterobacter cloacae, has a reported MIC of 4

Entry "CC(C)Oc1c2c(c(O)c3cc(CN4CCC4)ccc13)C(=O)C1=C(O)[C@]3(O)C(=O)C(C(N)=O)=C(O)[C@@H](N(C)C)[C@@H]3C[C@@H]1C2" , tested on Enterobacter cloacae, has a reported MIC of 16

Entry "CC(=O)NC1CN(Cc2ccc3cc4c(c(O)c3c2)C(=O)C2=C(O)[C@]3(O)C(=O)C(C(N)=O)=C(O)[C@@H](N(C)C)[C@@H]3C[C@@H]2C4)C1" , tested on Enterobacter cloacae, has a reported MIC of 8

Entry "COCCOc1c2c(c(O)c3cc(CN4CCC4)ccc13)C(=O)C1=C(O)[C@]3(O)C(=O)C(C(N)=O)=C(O)[C@@H](N(C)C)[C@@H]3C[C@@H]1C2" , tested on Enterobacter cloacae, has a reported MIC of 8

---

Tested on: Streptococcus pneumoniae
method.summary: Antimicrobial activity against tetracycline-resistant Streptococcus pneumoniae isolate 160 harboring tetM gene by CLSI dilution method
Assay type: functional
readout.name: MIC (µg/mL)
Kindly provide the numeric value in µg/mL only, without the unit symbol.

// recorded MIC for "CN(C)C1CN(Cc2ccc3cc4c(c(O)c3c2)C(=O)C2=C(O)[C@]3(O)C(=O)C(C(N)=O)=C(O)[C@@H](N(C)C)[C@@H]3C[C@@H]2C4)C1" : 1

// recorded MIC for "COc1c2c(c(O)c3cc(CN4CC(F)C4)ccc13)C(=O)C1=C(O)[C@]3(O)C(=O)C(C(N)=O)=C(O)[C@@H](N(C)C)[C@@H]3C[C@@H]1C2" : 0.0313

// recorded MIC for "CN(C)c1c2c(c(O)c3cc(CN4CCC4)ccc13)C(=O)C1=C(O)[C@]3(O)C(=O)C(C(N)=O)=C(O)[C@@H](N(C)C)[C@@H]3C[C@@H]1C2" : 0.125

// recorded MIC for "CCCNc1c2c(c(O)c3cc(CN4CCC4)ccc13)C(=O)C1=C(O)[C@]3(O)C(=O)C(C(N)=O)=C(O)[C@@H](N(C)C)[C@@H]3C[C@@H]1C2" : 2

// recorded MIC for "CN(C)Cc1ccc2cc3c(c(O)c2c1)C(=O)C1=C(O)[C@]2(O)C(=O)C(C(N)=O)=C(O)[C@@H](N(C)C)[C@@H]2C[C@@H]1C3" : 0.125
